Sourced from patent US11129782B2

system: cysteine peptide (Ac-RFAACAA-COOH); assay: Direct Peptide Reactivity Assay, cysteine peptide; details: cysteine; 24 h; 1:10

{"compound-structure-string": "Nc1ccc(Nc2ccc(Nc3ccc(N)cc3)cc2)cc1", "target-or-system": "cysteine peptide (Ac-RFAACAA-COOH)", "Reactivity Class": "High"}
{"compound-structure-string": "Nc1ccc(Nc2ccc(N)cc2)cc1", "target-or-system": "cysteine peptide (Ac-RFAACAA-COOH)", "Reactivity Class": "High"}

---

tested on: cysteine peptide (Ac-RFAACAA-COOH); assay: Direct Peptide Reactivity Assay, cysteine peptide; conditions: cysteine; 24 h; 1:10

{"compound": "Nc1ccc(N)cc1 [PPD, para-phenylenediamine, reference compound]", "Reactivity Class": "High"}
{"compound": "O=C1C=CC(=O)C=C1 [p-Benzoquinone, p-benzoquinone, reference compound]", "Reactivity Class": "High"}
{"compound": "NC1=CC(=Nc2ccc(N)cc2)C(N)=CC1=Nc1ccc(N)cc1 [Bandrowski Base, reference compound]", "Reactivity Class": "High"}

---

Test system: cysteine peptide (Ac-RFAACAA-COOH)
Test: Direct Peptide Reactivity Assay, cysteine peptide
Conditions: 20 min; 1:10
Experimental: For cysteine DPRA, an additional step was performed. The mass spectrometric analysis was performed by use of a AB SCIEX QTRAP 5500 tandem mass spectrometry (MS/MS) system (AB SCIEX, Framingham, Mass., USA) operating in triple quadrupole positive mode (ESI+) equipped with an AB Sciex Turbo Ion Spray interface. Acquisition and analysis of data were performed with Analyst software ver. 1.6.2 (Applied Biosystems).
property: % of Cysteine depletion, Avg

// query State its % of Cysteine depletion, Avg on cysteine peptide (Ac-RFAACAA-COOH): Nc1ccc(Nc2ccc(Nc3ccc(N)cc3)cc2)cc1
// result 54.0%

// query State its % of Cysteine depletion, Avg on cysteine peptide (Ac-RFAACAA-COOH): CCCCCCOc1cc(N)ccc1N
// result 32.8%

// query State its % of Cysteine depletion, Avg on cysteine peptide (Ac-RFAACAA-COOH): Nc1ccc(Nc2ccc(N)cc2)cc1
// result 41.5%

// query State its % of Cysteine depletion, Avg on cysteine peptide (Ac-RFAACAA-COOH): O=C1C=CC(=O)C=C1 [p-Benzoquinone, p-benzoquinone, reference compound]
// result 72.8%

// query State its % of Cysteine depletion, Avg on cysteine peptide (Ac-RFAACAA-COOH): Nc1ccc(N)cc1 [PPD, para-phenylenediamine, reference compound]
// result 15.1%

---

assay: Skin permeation in vertical Franz diffusion cells; assay type: in vitro ADME, porcine; conditions: 1% W/V applied; 8 h
property: % Parent compound Penetrated (mean) (%)
Answer in %, number only, no unit symbol.

// query Query: % Parent compound Penetrated (mean); subject: CCCCCCOc1cc(Nc2ccc(N)cc2)ccc1N
// result 0

// query Query: % Parent compound Penetrated (mean); subject: Nc1ccc(Nc2ccc(Nc3ccc(N)cc3)cc2)cc1
// result 0.00173

// query Query: % Parent compound Penetrated (mean); subject: COCc1cc(N)ccc1N [MEPPD, 2-(methoxymethyl)benzene-1,4,-diamine, reference compound]
// result 0.02

---

assay: Skin permeation in vertical Franz diffusion cells; assay type: in vitro ADME, porcine; conditions: 1% W/V applied; 8 h
Criterion: % converted to metabolite (mean) meeting or surpassing 0.01%. Met: true. Not met: false.

// query Decide: is the reported value of % converted to metabolite (mean) for COCc1cc(N)ccc1N [MEPPD, 2-(methoxymethyl)benzene-1,4,-diamine, reference compound] equal to or greater than 0.01%?
// result true

// query Decide: is the reported value of % converted to metabolite (mean) for CCCCCCOc1cc(Nc2ccc(N)cc2)ccc1N equal to or greater than 0.01%?
// result true

// query Decide: is the reported value of % converted to metabolite (mean) for Nc1ccc(Nc2ccc(Nc3ccc(N)cc3)cc2)cc1 equal to or greater than 0.01%?
// result false

// query Decide: is the reported value of % converted to metabolite (mean) for CCCCC(CC)COc1cc(N)ccc1N (stereo not shown) equal to or greater than 0.01%?
// result true

// query Decide: is the reported value of % converted to metabolite (mean) for Nc1ccc(Nc2ccc(N)cc2)cc1 equal to or greater than 0.01%?
// result true

// query Decide: is the reported value of % converted to metabolite (mean) for CCCCCCOc1cc(N)ccc1N equal to or greater than 0.01%?
// result true
